Test Target: full-length ATR (Homo sapiens (Human), UniProt Q13535)
Sequence (Q13535 whole entry): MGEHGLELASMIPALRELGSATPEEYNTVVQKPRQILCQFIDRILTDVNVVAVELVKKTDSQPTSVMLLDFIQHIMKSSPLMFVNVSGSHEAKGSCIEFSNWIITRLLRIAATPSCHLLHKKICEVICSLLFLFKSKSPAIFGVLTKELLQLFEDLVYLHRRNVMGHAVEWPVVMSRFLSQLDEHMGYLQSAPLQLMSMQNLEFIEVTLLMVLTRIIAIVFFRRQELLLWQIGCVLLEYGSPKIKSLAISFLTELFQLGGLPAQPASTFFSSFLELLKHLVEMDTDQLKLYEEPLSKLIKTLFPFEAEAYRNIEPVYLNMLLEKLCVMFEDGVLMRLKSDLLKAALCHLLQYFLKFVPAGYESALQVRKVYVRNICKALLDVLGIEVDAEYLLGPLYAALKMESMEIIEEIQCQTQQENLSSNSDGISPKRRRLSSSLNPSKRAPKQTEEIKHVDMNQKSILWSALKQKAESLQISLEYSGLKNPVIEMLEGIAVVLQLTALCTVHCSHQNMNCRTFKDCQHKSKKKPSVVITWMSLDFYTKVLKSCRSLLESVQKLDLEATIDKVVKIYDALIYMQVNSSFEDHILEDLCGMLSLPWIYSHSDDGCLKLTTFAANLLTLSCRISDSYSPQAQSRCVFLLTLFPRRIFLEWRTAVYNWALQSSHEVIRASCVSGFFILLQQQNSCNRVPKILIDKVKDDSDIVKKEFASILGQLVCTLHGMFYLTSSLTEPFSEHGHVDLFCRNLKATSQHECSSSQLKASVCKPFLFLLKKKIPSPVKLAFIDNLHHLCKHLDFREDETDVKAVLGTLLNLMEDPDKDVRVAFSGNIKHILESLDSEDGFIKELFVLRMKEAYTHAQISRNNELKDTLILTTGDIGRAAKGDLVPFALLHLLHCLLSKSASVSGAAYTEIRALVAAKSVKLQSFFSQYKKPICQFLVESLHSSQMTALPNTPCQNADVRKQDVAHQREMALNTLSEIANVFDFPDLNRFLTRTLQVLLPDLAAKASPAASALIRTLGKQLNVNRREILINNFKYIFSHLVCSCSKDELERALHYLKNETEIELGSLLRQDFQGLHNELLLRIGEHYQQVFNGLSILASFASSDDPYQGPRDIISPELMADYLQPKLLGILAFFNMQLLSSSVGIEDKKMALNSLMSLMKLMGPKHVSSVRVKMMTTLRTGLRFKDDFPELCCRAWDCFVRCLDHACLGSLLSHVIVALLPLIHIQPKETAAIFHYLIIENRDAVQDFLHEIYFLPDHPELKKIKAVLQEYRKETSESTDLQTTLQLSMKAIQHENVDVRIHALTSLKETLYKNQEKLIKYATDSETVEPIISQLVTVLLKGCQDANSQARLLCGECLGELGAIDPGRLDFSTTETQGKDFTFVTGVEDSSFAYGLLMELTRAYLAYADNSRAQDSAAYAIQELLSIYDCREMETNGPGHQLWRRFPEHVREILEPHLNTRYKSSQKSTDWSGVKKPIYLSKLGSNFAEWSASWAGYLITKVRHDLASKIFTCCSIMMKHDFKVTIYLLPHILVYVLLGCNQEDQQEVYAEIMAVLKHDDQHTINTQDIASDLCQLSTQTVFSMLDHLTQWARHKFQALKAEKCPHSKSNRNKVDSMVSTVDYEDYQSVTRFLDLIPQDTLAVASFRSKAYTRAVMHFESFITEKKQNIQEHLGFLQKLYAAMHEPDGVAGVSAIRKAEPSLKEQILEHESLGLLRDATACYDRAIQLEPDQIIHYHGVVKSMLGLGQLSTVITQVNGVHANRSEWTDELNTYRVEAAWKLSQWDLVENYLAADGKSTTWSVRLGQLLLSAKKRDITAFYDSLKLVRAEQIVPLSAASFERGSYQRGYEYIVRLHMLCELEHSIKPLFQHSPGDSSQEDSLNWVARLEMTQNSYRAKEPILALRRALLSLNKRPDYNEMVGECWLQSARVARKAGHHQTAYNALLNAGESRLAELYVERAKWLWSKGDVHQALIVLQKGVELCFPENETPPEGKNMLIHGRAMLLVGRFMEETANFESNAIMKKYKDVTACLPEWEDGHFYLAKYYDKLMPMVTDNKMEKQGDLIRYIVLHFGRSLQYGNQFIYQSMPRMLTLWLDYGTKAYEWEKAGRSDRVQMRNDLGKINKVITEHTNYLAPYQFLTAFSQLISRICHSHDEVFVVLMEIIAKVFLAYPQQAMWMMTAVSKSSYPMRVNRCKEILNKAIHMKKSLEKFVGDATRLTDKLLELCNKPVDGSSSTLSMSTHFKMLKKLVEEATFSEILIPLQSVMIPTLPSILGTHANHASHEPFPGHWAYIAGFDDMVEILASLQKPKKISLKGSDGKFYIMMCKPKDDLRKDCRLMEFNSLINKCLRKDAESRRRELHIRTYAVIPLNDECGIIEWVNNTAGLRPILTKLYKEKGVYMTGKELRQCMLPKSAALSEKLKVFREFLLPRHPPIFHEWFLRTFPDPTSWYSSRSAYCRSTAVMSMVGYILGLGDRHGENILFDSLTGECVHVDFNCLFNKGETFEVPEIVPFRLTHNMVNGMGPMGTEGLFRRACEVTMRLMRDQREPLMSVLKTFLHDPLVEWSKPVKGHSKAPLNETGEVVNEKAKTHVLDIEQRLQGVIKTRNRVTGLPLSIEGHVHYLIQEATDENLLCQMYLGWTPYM
Test Details: ATR Inhibition Assay (radioactive-phosphate incorporation)
Format: biochemical
Run Conditions: read-out: ATR Ki
Endpoint Name: Ki

- CN(C)C(=O)c1ccc(-c2cnc(N)c(-c3nnc(NCCc4ccccc4)o3)n2)cc1: 100 to 5000 nM
- CN(C)C1CCN(C(=O)c2ccc(-c3cnc(N)c(-c4nnc(-c5ccccc5)o4)n3)c(C(F)(F)F)c2)CC1: 10 to 100 nM
- Cc1ccc2nc(-c3nc(-c4ccc(C(=O)N5CCC(N(C)C)CC5)cc4)cnc3N)[nH]c2c1 [III-2]: 10 to 100 nM
- CN(C)C(=O)c1ccc(-c2cnc(N)c(-c3nnc(-c4sccc4C#N)o3)n2)cc1: 10 to 100 nM
- CS(=O)(=O)c1ccc(-c2cnc(N)c(C(=O)Nc3ncns3)n2)cc1: 10 to 100 nM
- CC(C)S(=O)(=O)c1ccc(-c2cnc(N)c(-c3nnc(-c4cc(C#N)cs4)o3)n2)cc1: 10 to 100 nM
- CNCc1ccc(-c2nnc(-c3nc(-c4ccc(S(=O)(=O)N(C)C)cc4)cnc3N)o2)cc1: ≤ 10 nM
- Cc1ccccc1NC(=O)c1nc(-c2cccnc2)cnc1N: 100 to 5000 nM
- CC(=O)Nc1cccc(NC(=O)c2nc(-c3cccnc3)cnc2N)c1: 100 to 5000 nM
- Nc1ncc(-c2ccnc(N3CCNCC3)c2)nc1-c1nnc(-c2ccccc2)o1: 100 to 5000 nM
- CC(C)S(=O)(=O)c1ccc(-c2cnc(N)c(-c3nnc(C(=O)NC4CCNC4)o3)n2)cc1 (centres unmarked): 100 to 5000 nM
- CNCc1ccc(-c2cc(-c3nc(-c4ccc(S(=O)(=O)C5CCOC5)cc4)cnc3N)on2)c(F)c1 (centres unmarked): ≤ 10 nM
- Nc1ncc(-c2ccc(C(=O)N3CCCNCC3)cc2)nc1C(=O)Nc1ccc2cn[nH]c2c1: 10 to 100 nM
- CNCc1ccc(-c2nnc(-c3nc(-c4ccc(S(=O)(=O)C(C)CCOC)cc4)cnc3N)o2)cc1 (centres unmarked): ≤ 10 nM
- CN(C)C(=O)c1ccc(-c2cnc(N)c(-c3nnc(NC4CCCCC4)o3)n2)cc1: 100 to 5000 nM
- NC(=O)c1cccc(-c2cnc(N)c(-c3nnc(-c4ccccc4)o3)n2)c1: 10 to 100 nM
- CN(C)C(=O)c1ccccc1-c1cnc(N)c(-c2nnc(-c3ccccc3)o2)n1: 100 to 5000 nM

* * *

Test Target: full-length ATR (Homo sapiens (Human))
Test Details: ATR Inhibition Assay (radioactive-phosphate incorporation)
Assay type: biochemical
Run Conditions: read-out: ATR Ki
Endpoint Name: Ki

* Nc1ncc(-c2ccc(NCCN3CCOCC3)nc2)nc1-c1nnc(-c2ccccc2)o1 [IA-72] | 100 to 5000 nM
* CC(C)S(=O)(=O)c1ccc(-c2cnc(N)c(-c3nnc(-c4ccc(CN[C@@H](C)CO)cc4F)o3)n2)cc1 [IA-335] | ≤ 10 nM
* CCNCc1ccc(-c2cc(-c3nc(-c4ccc(S(=O)(=O)C(C)C)cc4)cnc3N)on2)cc1 [IIA-10] | ≤ 10 nM
* CNCc1ccc(-c2nnc(-c3nc(-c4ccc(S(=O)(=O)C(C)C)c(Cl)c4)cnc3N)o2)cc1 [IA-305] | ≤ 10 nM
* CS(=O)(=O)c1ccc(-c2cnc(N)c(-c3nc4ccc(Cl)cc4[nH]3)n2)cc1 [Compound I-114] | ≤ 10 nM
* CN(C)C(=O)c1ccc(-c2cnc(N)c(-c3nnc(C4CC4)o3)n2)cc1 [IA-101] | 100 to 5000 nM
* CNCc1cccc(NC(=O)c2nc(-c3ccc(S(=O)(=O)C(C)C)cc3)cnc2N)c1 [VII-12] | ≤ 10 nM
* N#Cc1ccc(-c2cnc(N)c(C(=O)Nc3ccccc3)n2)cc1 [Compound I-21] | 10 to 100 nM
